// data source = patent US20200325187A1

Target: T1, hVEGF-A (8-109) (human, UniProt P15692 214-315)
T1 sequence (looked up): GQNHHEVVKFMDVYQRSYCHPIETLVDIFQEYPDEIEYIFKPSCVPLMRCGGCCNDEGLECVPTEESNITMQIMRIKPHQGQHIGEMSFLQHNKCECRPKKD
Test: spot phage ELISA
Method: After four rounds of binding selection, individual phage clones were picked and inoculated into 450 μl 2YT media containing 50 µg/ml Carbenecillin and M13-KO7 helper phage in 96-well blocks, which were grown at 37° C. overnight. […] The plates were washed and bound phage was detected with anti-M13-HRP followed by TMB substrate. In these assays, phage binding to BSA alone was tested in parallel to assess background binding. […] Positive clones were subjected to DNA sequence analysis.
Endpoint name: S/N vs BSA
Write the value as a bare number.

Before answering, review these 3 worked examples.
>>> print(df.to_string())
                                     binder  endpoint_name  result_value
0  GCKLFEPLWGCKQDSDCLAGCVCRWYESCG (designed binder) [VEGF_CKP9.96]     S/N vs BSA          18.4
1  GCKIMQPLWGCKQDSDCLAGCVCLWYDSCG (designed binder) [VEGF_CKP9.47]     S/N vs BSA          14.6
2  GCQLLQPLWGCKQDSDCLAGCVCRWYQSCG (designed binder) [VEGF_CKP9.71]     S/N vs BSA          16.5

Prompt: What S/N vs BSA value was documented for this binder, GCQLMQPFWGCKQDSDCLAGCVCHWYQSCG (designed binder, also called E9) [VEGF_CKP9] ?
Completion: 7.4

Prompt: Cool, now GCDVLQPFWGCKQDSDCLAGCVCHWYQSCG (designed binder) [VEGF_CKP9.2]
Completion: 31.1

Prompt: Moving on to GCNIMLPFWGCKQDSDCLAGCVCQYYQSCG (designed binder, also called EM54) [VEGF_CKP9.54]
Completion: 28.4

Prompt: Can you check GCQISQPFWGCKQDSDCLAGCVCHFYNSCG (designed binder) [VEGF_CKP9.3] next?
Completion: 24.5

Prompt: Also check GCNLMHPFWGCKQDSDCLAGCVCHWYQSCG (designed binder) [VEGF_CKP9.51]
Completion: 11

Prompt: Also check GCRLLEPSWGCKQDSDCLAGCVCQWYQSCG (designed binder) [VEGF_CKP9.72]
Completion: 10

Prompt: Try this binder too: GCDRMQPYWGCKQDSDCLAGCVCQWYKSCG (designed binder) [VEGF_CKP9.11]
Completion: 14.1

Prompt: Now give it for GCALLQPLWGCKQDSDCLAGCVCRWYNSCG (designed binder) [VEGF_CKP9.69] too.
Completion: 14.3
